Target: UniProtKB P50406
Sequence (P50406 whole entry): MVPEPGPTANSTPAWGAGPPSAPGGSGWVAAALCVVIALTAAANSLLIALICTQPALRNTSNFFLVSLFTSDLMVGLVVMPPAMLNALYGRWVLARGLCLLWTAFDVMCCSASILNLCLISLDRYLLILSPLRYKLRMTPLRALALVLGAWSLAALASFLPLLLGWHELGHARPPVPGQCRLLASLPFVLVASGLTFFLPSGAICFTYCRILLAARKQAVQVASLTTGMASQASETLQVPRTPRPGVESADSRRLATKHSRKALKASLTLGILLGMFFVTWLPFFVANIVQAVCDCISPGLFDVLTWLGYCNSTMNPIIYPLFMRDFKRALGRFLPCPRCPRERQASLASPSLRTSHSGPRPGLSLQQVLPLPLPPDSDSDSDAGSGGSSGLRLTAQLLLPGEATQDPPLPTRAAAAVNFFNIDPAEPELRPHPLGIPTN
Protocol notes: Binding affinity to human recombinant 5HT6 receptor expressed in HEK293 cells by radioligand displacement assay
Readout kind: Ki (nM)

[a] O=S(=O)(c1ccc(Br)cc1)c1nnn2c1nc(NCc1ccc3c(c1)OCO3)c1sccc12
[b] O=S(=O)(c1ccccc1)c1nnn2c1nc(NCc1ccco1)c1sccc12
[c] O=S(=O)(c1ccccc1)c1nnn2c1nc(N1CCCC1)c1sccc12
[d] O=S(=O)(c1ccccc1)c1nnn2c1nc(NCC1CCCO1)c1sccc12 (stereo not given)
Qu. Please rank everything listed above by Ki, with the minimum value first. List the labels, following the order given in the request.
Ans. b, d, a, c
(b: 2.8 nM, d: 8.1 nM, a: 28.8 nM, c: 87.5 nM)
